- Organism: Rattus norvegicus
- TEST_DESCRIPTION: Open TG-GATES - Regimen: Single
- Format: toxicity, organism-based, Sprague-Dawley
- Design: regimen Single, gender Male, age 6 weeks
- DETAILS: in vivo, po, 0 mg/kg, 6 h, tissue Plasma, route gavage, dose level Control
Assignment: determine reported DBIL for the given compounds.
Write the figure, then the unit, nothing else.

COc1cc([C@@H]2c3cc4c(cc3[C@@H](O[C@@H]3O[C@@H]5CO[C@@H](C)O[C@H]5[C@H](O)[C@H]3O)[C@H]3COC(=O)[C@H]23)OCO4)cc(OC)c1O [ETOPOSIDE]    0.016 mg/dL
CC(=O)Nc1nnc(S(N)(=O)=O)s1 [ACETAZOLAMIDE]    0 mg/dL
CCOC(=O)[C@H](CCc1ccccc1)N[C@@H](C)C(=O)N1CCC[C@H]1C(=O)O    0.022 mg/dL
CN(C)[C@@H]1C(O)=C(C(N)=O)C(=O)[C@@]2(O)C(O)=C3C(=O)c4c(O)cccc4[C@@](C)(O)[C@H]3C[C@@H]12 [TETRACYCLINE]    0.018 mg/dL
CN1C(C(=O)Nc2ccccn2)=C(O)c2sc(Cl)cc2S1(=O)=O [LORNOXICAM]    0.066 mg/dL

Please supply DBIL for each of the following items, keeping them in order.
1. Cc1cccc(Nc2ccccc2C(=O)O)c1C [MEFENAMIC ACID]
2. Clc1c(Cl)c(Cl)c(Cl)c(Cl)c1Cl [PERCHLOROBENZENE]
3. C1CCC(C(CC2CCCCN2)C2CCCCC2)CC1 (stereo not given) [PERHEXILINE]
4. C#C[C@]1(O)CC[C@H]2[C@@H]3CCC4=Cc5oncc5C[C@]4(C)[C@H]3CC[C@@]21C [DANAZOL]

["0.062 mg/dL", "0.06 mg/dL", "0 mg/dL", "0 mg/dL"]

Look up DBIL: CC(CN1c2ccccc2Sc2ccccc21)N(C)C (stereo not given) [PROMETHAZINE]
0 mg/dL
